target: Prostacyclin Receptors (IP Receptors) of Human Thrombocyte Membranes (Homo sapiens); construct: Thrombocyte membranes are obtained by centrifuging 50 ml of human blood; tissue Maco Pharma, Langen (buffy coats); assay: Binding to prostacyclin receptors (IP receptors) of human thrombocyte membranes, 3H-Iloprost displacement; conditions: 3 nM 3H-Iloprost, 60 min, room temperature
Sequence (P43119 whole entry): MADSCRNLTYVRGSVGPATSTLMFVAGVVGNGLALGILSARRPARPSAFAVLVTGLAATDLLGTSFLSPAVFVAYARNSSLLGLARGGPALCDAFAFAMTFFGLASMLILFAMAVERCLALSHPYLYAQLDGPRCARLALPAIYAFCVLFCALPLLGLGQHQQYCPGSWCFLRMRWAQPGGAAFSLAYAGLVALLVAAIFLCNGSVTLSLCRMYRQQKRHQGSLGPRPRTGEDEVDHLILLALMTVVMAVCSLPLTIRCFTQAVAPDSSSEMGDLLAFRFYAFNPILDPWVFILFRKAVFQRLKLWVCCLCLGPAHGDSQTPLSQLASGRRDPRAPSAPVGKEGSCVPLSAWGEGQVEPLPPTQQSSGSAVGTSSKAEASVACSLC
pIC50: −log10 of the molar value.
READOUT LABEL: pIC50

Noted for C=CCOC(=O)/C=C/c1c(-c2ccccc2)oc2ncnc(O[C@H](C)CCCCC(=O)O)c12 [Example 15] : its pIC50 reads 6.26

P. CCCNC(=O)/C(C)=C/c1c(-c2ccccc2)oc2ncnc(O[C@H](C)CCCCC(=O)O)c12 [Example 21]
Q. CCOC(=O)/C(C)=C/c1c(-c2ccccc2)oc2ncnc(O[C@H](C)CCCCC(=O)O)c12 [Example 16]
R. CCCC(=O)/C=C/c1c(-c2ccccc2)oc2ncnc(O[C@H](C)CCCCC(=O)O)c12 [Example 17]
Data request: Arrange the 3 entries by pIC50 so the values rise. Answer by writing out the labels in the requested order.
Data returned: R, P, Q
(R: 5.98, P: 6.88, Q: 7.89)

Values from patent US20100267749A1
